- assayedTarget: Dual specificity mitogen-activated protein kinase kinase 5 (Homo sapiens, UniProt Q13163); note: in the data inactive means no Kd found up to 30 µM
- Sequence (Q13163 whole entry): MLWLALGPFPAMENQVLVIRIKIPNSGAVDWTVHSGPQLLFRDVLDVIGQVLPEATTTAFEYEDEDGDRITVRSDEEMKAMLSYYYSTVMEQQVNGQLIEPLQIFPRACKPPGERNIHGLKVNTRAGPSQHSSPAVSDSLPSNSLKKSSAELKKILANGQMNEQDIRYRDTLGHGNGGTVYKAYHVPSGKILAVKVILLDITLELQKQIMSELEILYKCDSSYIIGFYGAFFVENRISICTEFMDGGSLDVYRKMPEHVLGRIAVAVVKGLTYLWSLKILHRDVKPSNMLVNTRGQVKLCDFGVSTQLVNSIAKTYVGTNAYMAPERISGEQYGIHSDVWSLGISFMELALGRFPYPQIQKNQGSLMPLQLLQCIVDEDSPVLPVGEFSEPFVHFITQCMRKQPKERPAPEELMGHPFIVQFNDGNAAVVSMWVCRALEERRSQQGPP
Activity calls are given as the source filed them.
The reply should name one outcome from true (1) = active, false (0) = inactive

{"compound": "COCC(=O)NC/C=C/c1ccc2ncnc(Nc3ccc(Oc4ccc(C)nc4)c(C)c3)c2c1", "assayedTarget": "Dual specificity mitogen-activated protein kinase kinase 5 (Homo sapiens, UniProt Q13163)", "class": "true (1)"}

Record lookup: outcome of this test for Cn1cc(-c2cnn3c(N)c(Br)c([C@@H]4CCCNC4)nc23)cn1 ?
true (1)

Record lookup: outcome of this test for CCS(=O)(=O)c1cccc(-c2cc(C(=O)NC3CCN(C)CC3)c(C)c3[nH]c4ncc(C)cc4c23)c1 ?
true (1)

Record lookup: outcome of this test for COCc1c(-c2ccc(NC(=O)Nc3cc(C(F)(F)F)ccc3F)c(F)c2)c2c(N)ncnn2c1CN1CCOCC1 ?
false (0)

Record lookup: outcome of this test for Cc1nc2cc(-n3ncc(C(=O)c4cc5ccccc5[nH]4)c3N)ccc2[nH]1 ?
false (0)

Record lookup: outcome of this test for Cn1cc(-c2cnc3ccc4ccc(CS(=O)(=O)NCc5ccccn5)cc4c(=O)c3c2)cn1 ?
false (0)

Record lookup: outcome of this test for C=CC(=O)Nc1cc2c(Nc3ccc(F)c(Cl)c3)ncnc2cc1C#CC(C)(C)N1CCN(C)CC1 [AV-412 FREE BASE] ?
false (0)

Record lookup: outcome of this test for O=C(Nc1c[nH]nc1-c1nc2cc(CN3CCOCC3)ccc2[nH]1)NC1CC1 ?
true (1)

###

Assay read-out Kd; system under study: RAC-gamma serine/threonine-protein kinase (Homo sapiens, UniProt Q9Y243). Note: in the data inactive means no Kd found up to 30 µM.
Sequence (Q9Y243 whole entry): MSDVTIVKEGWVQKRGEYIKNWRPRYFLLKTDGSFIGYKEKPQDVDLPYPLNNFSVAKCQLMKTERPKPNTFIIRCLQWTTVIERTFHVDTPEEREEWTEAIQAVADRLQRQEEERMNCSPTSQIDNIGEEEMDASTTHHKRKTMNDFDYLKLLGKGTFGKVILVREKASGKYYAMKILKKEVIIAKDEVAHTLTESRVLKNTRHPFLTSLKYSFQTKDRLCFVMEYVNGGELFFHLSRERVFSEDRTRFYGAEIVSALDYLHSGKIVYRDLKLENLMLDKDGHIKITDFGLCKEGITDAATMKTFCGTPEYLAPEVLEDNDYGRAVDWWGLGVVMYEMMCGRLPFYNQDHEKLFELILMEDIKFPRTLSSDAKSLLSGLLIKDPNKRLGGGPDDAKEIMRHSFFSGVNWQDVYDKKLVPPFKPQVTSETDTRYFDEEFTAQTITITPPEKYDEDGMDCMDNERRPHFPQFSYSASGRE
Active and inactive are the calls of the source.

Please review the following examples before continuing.
{"smilesRecord": "Cc1cc(Nc2ncc(Cl)c(Nc3ccccc3S(=O)(=O)C(C)C)n2)c(OC(C)C)cc1C1CCNCC1", "Kd": "> 30 µM (inactive)"}
{"smilesRecord": "CO[C@H]1C[C@@H]2CC[C@@H](C)[C@@](O)(O2)C(=O)C(=O)N2CCCC[C@H]2C(=O)O[C@H]([C@H](C)C[C@@H]2CC[C@@H](O)[C@H](OC)C2)CC(=O)[C@H](C)/C=C(\\C)[C@@H](O)[C@@H](OC)C(=O)[C@H](C)C[C@H](C)/C=C/C=C/C=C/1C", "Kd": "> 30 µM (inactive)"}
{"smilesRecord": "COc1cc2c(Nc3ccc(Cl)c(Cl)c3F)ncnc2cc1OC[C@@H]1C[C@@H]2CN(C)C[C@@H]2C1", "Kd": "> 30 µM (inactive)"}
{"smilesRecord": "C=CC(=O)N1CCC[C@H](n2c(=O)n(-c3ccc(Oc4ccccc4)cc3)c3c(N)ncnc32)C1", "Kd": "> 30 µM (inactive)"}
{"smilesRecord": "COCc1c(-c2ccc(NC(=O)Nc3cc(C(F)(F)F)ccc3F)c(F)c2)c2c(N)ncnn2c1CN1CCOCC1", "Kd": "> 30 µM (inactive)"}

The reported RAC-gamma serine/threonine-protein kinase (Homo sapiens, UniProt Q9Y243) Kd of Cc1nc2cc(-c3nn(C(C)C)c4ncnc(N)c34)ccc2o1 is > 30 µM (inactive)

Source: ChEMBL document CHEMBL3991601
